# test: Pharmacokinetic screening in rats, brain and plasma concentrations at 6 hour time point
# Format: in vivo
# assayContext: male, Sprague Dawley, brain; rat, 5 mg/kg oral (PO), 2% Tween 80 in distilled water, 6 hour time point; read-out: Brain concentration
Counter-ions that a name gives are not always drawn.
Note to self: use true (1) only for concentration at 6 h readings below 1000 ng/g; a reading exactly at 1000 ng/g still gets false (0).

Illustrative cases are given below, each with its answer.
molecule | classAssignment
CCOCc1nc(-c2ccc(OC[C@@H](O)CN(C)C)cc2)cn1-c1ccc(Oc2ccc(Cl)cc2)cc1 [Example 6, dihydrochloride] | false (0)
CCOCc1nc(-c2ccc(OC[C@@H](O)CN(CC)CC)cc2)cn1-c1ccc(Oc2ccc(Cl)cc2)cc1 [Example 8, dihydrochloride] | false (0)
CCOCc1nc(-c2ccc(OC[C@H](O)CN(CC)CC)cc2)cn1-c1ccc(Oc2ccc(Cl)cc2)cc1 [Example 7, dihydrochloride] | false (0)
CCCCc1nc(-c2ccc(OC[C@@H](O)CNCC)cc2)cn1-c1ccc(Oc2ccc(Cl)cc2)cc1 [Example 12, dihydrochloride] | true (1)
CCCCc1nc(-c2ccc(OC[C@@H](O)CN(C)C)cc2)cn1-c1ccc(Oc2ccc(Cl)cc2)cc1 [Example 3, dihydrochloride] | false (0)

Asked: is_below(concentration at 6 h, 1000 ng/g) for CCOCc1nc(-c2ccc(OC[C@H](O)CN(C)C)cc2)cn1-c1ccc(Oc2ccc(Cl)cc2)cc1 [Example 5, dihydrochloride] ?
Given back: false (0)
